Taken from paper PMC12621043.

# Target entity: PCTK1A (Homo sapiens, UniProt Q00536)
# Construct: purchased in-house DSF kinase panel (SGC-style construct names; the trailing letter is the construct ID)
# Sequence (Q00536 163-478): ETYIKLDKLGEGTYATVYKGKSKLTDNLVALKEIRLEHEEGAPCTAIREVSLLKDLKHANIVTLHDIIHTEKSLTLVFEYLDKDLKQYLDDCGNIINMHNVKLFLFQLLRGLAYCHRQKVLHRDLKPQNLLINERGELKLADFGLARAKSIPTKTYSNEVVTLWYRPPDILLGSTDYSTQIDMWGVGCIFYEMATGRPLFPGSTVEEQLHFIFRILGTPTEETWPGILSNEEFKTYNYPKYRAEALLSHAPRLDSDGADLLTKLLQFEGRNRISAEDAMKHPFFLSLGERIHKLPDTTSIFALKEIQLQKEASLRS
# Method description: DSF Tm panel
# Assay type: binding
# Details: 10 μM compound
Answer each item with its documented ΔTm at 10 µM.
Please state the figure in °C; there is no need to write the unit.

Fill in: ΔTm at 10 µM of O=C(NCc1ccccc1Cl)Nc1ccc2cc1OCCOCCNc1ccn3ncc-2c3n1 is ___
2.5

Fill in: ΔTm at 10 µM of COc1ccc(CNC(=O)Nc2ccc3cc2OCCOCCNc2ccn4ncc-3c4n2)cc1 is ___
1.9

Fill in: ΔTm at 10 µM of COc1ccc(CNC(=O)Nc2ccc3cc2OCCOCCNc2ccn4ncc-3c4n2)cc1F is ___
2

Fill in: ΔTm at 10 µM of O=C(NCc1ccc(Cl)cc1Cl)Nc1ccc2cc1OCCOCCNc1ccn3ncc-2c3n1 is ___
1.1

Fill in: ΔTm at 10 µM of O=C(NCc1ccc(C(F)(F)F)cc1)Nc1ccc2cc1OCCOCCNc1ccn3ncc-2c3n1 is ___
1

Fill in: ΔTm at 10 µM of O=C(NCc1ccc(Cl)cc1)Nc1ccc2cc1OCCOCCNc1ccn3ncc-2c3n1 is ___
1.3

Fill in: ΔTm at 10 µM of COc1cccc(CNC(=O)Nc2ccc3cc2OCCOCCNc2ccn4ncc-3c4n2)c1 is ___
1.3

Fill in: ΔTm at 10 µM of Cc1cc(Br)ccc1CNC(=O)Nc1ccc2cc1OCCOCCNc1ccn3ncc-2c3n1 is ___
0.7

Fill in: ΔTm at 10 µM of O=C(NCc1cccc(Cl)c1)Nc1ccc2cc1OCCOCCNc1ccn3ncc-2c3n1 is ___
1.3

Fill in: ΔTm at 10 µM of Cc1ccc(F)cc1CNC(=O)Nc1ccc2cc1OCCOCCNc1ccn3ncc-2c3n1 is ___
1
